biological target: 5-hydroxytryptamine receptor 4 (Homo sapiens); assay: Agonist activity at human 5HT4C receptor expressed in HEK293 cells assessed as accumulation of cAMP by flash plate adenylyl cyclase activation assay
Sequence (Q13639 whole entry): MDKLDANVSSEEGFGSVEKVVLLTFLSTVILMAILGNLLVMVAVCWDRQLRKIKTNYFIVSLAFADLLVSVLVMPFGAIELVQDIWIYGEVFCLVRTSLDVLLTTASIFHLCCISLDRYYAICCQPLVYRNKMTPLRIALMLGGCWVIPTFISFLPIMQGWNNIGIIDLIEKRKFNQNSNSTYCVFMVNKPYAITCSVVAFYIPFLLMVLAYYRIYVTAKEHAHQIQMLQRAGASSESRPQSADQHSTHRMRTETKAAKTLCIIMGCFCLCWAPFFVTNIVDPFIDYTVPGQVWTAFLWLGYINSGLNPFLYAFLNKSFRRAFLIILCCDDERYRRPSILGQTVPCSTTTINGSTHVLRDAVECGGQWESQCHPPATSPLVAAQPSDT
We begin with a simple list: items and their reported EC50.
RESULT_TYPE: EC50 (nM)

>>> df
                                    molecule  value_observed
 0  COc1cc(N)c(Cl)cc1C(=O)NC1CCN(CCCCCN2C(=O)c3ccccc3C2=O)CC1            5.01
 1  COc1cc(N)c(Cl)cc1C(=O)NC1CCN(CCN2C(=O)c3ccccc3C2=O)CC1             631
 2  CC(C)n1c(=O)c(C(=O)N[C@H]2C[C@H]3CC[C@@H](C2)N3CCN2CCCCC2)cc2ccccc21              10
 3         COc1cc(N)c(Cl)cc1C(=O)NCCN1CCNCC1             501
 4  CC(C)n1c(=O)c(C(=O)N[C@H]2C[C@H]3CC[C@@H](C2)N3CCCCCCCN2CCC(CNS(C)(=O)=O)CC2)cc2ccccc21           0.631
 5  CC(C)n1c(=O)c(C(=O)N[C@H]2C[C@H]3CC[C@@H](C2)N3CCCCCCCN2CCCCC2)cc2ccccc21           0.794
 6        CC(C)n1nc(C(=O)NC2CCNCC2)c2ccccc21             200
 7  CC(C)n1c(=O)c(C(=O)N[C@H]2C[C@H]3CC[C@@H](C2)N3CCCCCCCCN(C)CCc2c[nH]c3ccccc23)cc2ccccc21               1
 8  COc1cc(N)c(Cl)cc1C(=O)NC1CCN(CCCCCCCCS(=O)(=O)O)CC1            1000
 9  CC(C)n1c(=O)c(C(=O)N[C@H]2C[C@H]3CC[C@@H](C2)N3CCCCCCCCS(=O)(=O)O)cc2ccccc21              20
10  CCOC(=O)N1CCN(CCCN2[C@@H]3CC[C@H]2C[C@@H](NC(=O)c2cc4ccccc4n(C(C)C)c2=O)C3)CC1            2.51
11  COc1cc(N)c(Cl)cc1C(=O)NC1CCN(CCS(=O)(=O)O)CC1            1580
12  CC(C)n1c(=O)c(C(=O)N[C@H]2C[C@H]3CC[C@@H](C2)N3CCCN2CCC(CNS(C)(=O)=O)CC2)cc2ccccc21               1
13  CC(C)n1c(=O)c(C(=O)N[C@H]2C[C@H]3CC[C@@H](C2)N3CCCCCCCN2CCN(c3ccccc3)CC2)cc2ccccc21            7.94
14  CC(C)n1c(=O)c(C(=O)N[C@H]2C[C@H]3CC[C@@H](C2)N3CC(O)CN2CCN(S(C)(=O)=O)CC2)cc2ccccc21 (mixture of isomers)           0.794
15  CCOC(=O)N1CCN(CCCCCCCN2[C@@H]3CC[C@H]2C[C@@H](NC(=O)c2cc4ccccc4n(C(C)C)c2=O)C3)CC1            3.16
